Target: GST-Nv-NF-kB (Ser allele) (Nematostella vectensis, UniProt A7UNT2 2-411)
Sequence: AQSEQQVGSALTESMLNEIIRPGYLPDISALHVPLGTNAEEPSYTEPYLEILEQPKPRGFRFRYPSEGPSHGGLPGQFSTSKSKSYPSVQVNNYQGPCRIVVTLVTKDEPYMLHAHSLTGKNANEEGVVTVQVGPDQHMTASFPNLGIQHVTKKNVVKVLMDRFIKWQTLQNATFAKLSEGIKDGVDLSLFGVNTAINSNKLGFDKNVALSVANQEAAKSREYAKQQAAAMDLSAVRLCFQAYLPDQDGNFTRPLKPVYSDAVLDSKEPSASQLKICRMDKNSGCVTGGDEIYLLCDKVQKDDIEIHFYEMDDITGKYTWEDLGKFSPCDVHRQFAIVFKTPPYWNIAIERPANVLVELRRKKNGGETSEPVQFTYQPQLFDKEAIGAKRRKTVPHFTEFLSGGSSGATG
Experiment: protein-binding microarray (PBM); PBM: ~300 nM protein, 6 mM HEPES pH 7.8, 80 mM KCl, 0.5 mM EDTA, 0.5 mM EGTA, 6% glycerol, 35 ng/ul poly-dIdC, 1% milk, 1 h, room temperature; Ap Aiptasia and Nv Nematostella (sea anemones) / Co Capsaspora / Aq Amphimedon (sponge) / Dm Drosophila / Hu human; RHD is the Rel homology domain; high values mean tight binding
Conditions: dsDNA, one strand shown
Recorded metric: binding signal (z-score)

[[record]]
polymer_sequence = "CCGATTAACATCAAAAAGCCCCTTGATGTTAATCGGGTCTTGATTCGCTTGACGCTGCTG"
result_unit = "z-score"
test_value = 7.49

[[record]]
polymer_sequence = "CCGATTAACATCAGGGAAATGTATGATGTTAATCGGGTCTTGATTCGCTTGACGCTGCTG"
result_unit = "z-score"
test_value = 4.88

[[record]]
polymer_sequence = "CCGATTAACATCAGGGGAACACCTGATGTTAATCGGGTCTTGATTCGCTTGACGCTGCTG"
result_unit = "z-score"
test_value = 6.14

[[record]]
polymer_sequence = "CCGATTAACATCAGAAACTCCCATGATGTTAATCGGGTCTTGATTCGCTTGACGCTGCTG"
result_unit = "z-score"
test_value = 2.93

[[record]]
polymer_sequence = "CCGATTAACATCAGGGGCATACCTGATGTTAATCGGGTCTTGATTCGCTTGACGCTGCTG"
result_unit = "z-score"
test_value = 1.94

[[record]]
polymer_sequence = "CCGATTAACATCAGGGGCAGGGATGATGTTAATCGGGTCTTGATTCGCTTGACGCTGCTG"
result_unit = "z-score"
test_value = 1.47

[[record]]
polymer_sequence = "CCGATTAACATCAGGGAATTTAATGATGTTAATCGGGTCTTGATTCGCTTGACGCTGCTG"
result_unit = "z-score"
test_value = 6.59

[[record]]
polymer_sequence = "CCGATTAACATCATGTACGGGAATGATGTTAATCGGGTCTTGATTCGCTTGACGCTGCTG"
result_unit = "z-score"
test_value = 1.46

[[record]]
polymer_sequence = "CCGATTAACATCAGGGGTATTACTGATGTTAATCGGGTCTTGATTCGCTTGACGCTGCTG"
result_unit = "z-score"
test_value = 3.14

[[record]]
polymer_sequence = "CCGATTAACATCAAGGGAAATCCTGATGTTAATCGGGTCTTGATTCGCTTGACGCTGCTG"
result_unit = "z-score"
test_value = 6.52

[[record]]
polymer_sequence = "CCGATTAACATCAGGAAAGCACCTGATGTTAATCGGGTCTTGATTCGCTTGACGCTGCTG"
result_unit = "z-score"
test_value = 2.69

[[record]]
polymer_sequence = "CCGATTAACATCAGGGAAAAATATGATGTTAATCGGGTCTTGATTCGCTTGACGCTGCTG"
result_unit = "z-score"
test_value = 7.16

